Documented pKd across a set of binders
- TEST_SYSTEM: T1, GPC3 (UniProt P51654 25-559, limits assumed)
- T1 construct: also called antigen GPC3; Glypican 3
- T1 sequence (P51654 25-559 limits assumed): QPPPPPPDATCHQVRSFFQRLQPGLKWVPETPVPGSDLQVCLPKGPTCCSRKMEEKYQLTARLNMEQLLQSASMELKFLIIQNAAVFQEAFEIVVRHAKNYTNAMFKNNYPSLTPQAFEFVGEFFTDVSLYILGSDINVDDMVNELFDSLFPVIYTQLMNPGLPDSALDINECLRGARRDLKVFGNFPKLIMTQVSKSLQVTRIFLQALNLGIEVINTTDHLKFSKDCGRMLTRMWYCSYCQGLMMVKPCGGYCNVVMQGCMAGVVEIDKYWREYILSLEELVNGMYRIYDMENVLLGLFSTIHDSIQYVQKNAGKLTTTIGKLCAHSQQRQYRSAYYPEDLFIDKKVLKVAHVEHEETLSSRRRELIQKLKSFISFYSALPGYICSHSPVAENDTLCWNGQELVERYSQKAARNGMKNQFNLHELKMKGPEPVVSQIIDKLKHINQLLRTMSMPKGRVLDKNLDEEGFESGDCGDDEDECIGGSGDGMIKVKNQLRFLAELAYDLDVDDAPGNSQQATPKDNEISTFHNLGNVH
- METHOD: SPR as in Example 1 (Biacore T200; scFv-Fc captured, GPC3 in flow)
# pKd: negative log10 of molar concentration; output just the value

These solved cases illustrate the format of a correct answer.
1) VL1.M2-VH2.M6 humanized scFv (scFv, not shown: a dimerising Fc or GST, Crude scFv with Fc tag from HEK293 supernatant) scFv: DIVMTQTPLSLSVTPGQPASISCRSSQSLVHSNGNTYLHWYLQKPGQSPQLLIYKVSSRFSGVPDRFSGSGSGTDFTLKISRVEAEDVGVYYCSQNTHVPPTFGQGTKVEIKGGGGSGGGGSGGGGSQVQLVQSGAEVKKPGASVKVSCKASGYTFTSYEMHWVRQAPGQGLEWMGALDPKTGDTAYSQKFQGRVTLTADTSTSTVYMELSSLRSEDTAVYYCTRFYSYTYWGQGTLVTVSS ... 8.17
2) VL1.M7-VH2.M6 humanized scFv (scFv, not shown: a dimerising Fc or GST) scFv: DIVMTQTPLSLSVTPGQPASISCRSSQSLVHSNGNTYLHWYLQKPGQSPQLLIYKVSSRFSGVPDRFSGSGSGTDFTLKISRVEAEDVGVYYCSQGTHVPPTFGQGTKVEIKGGGGSGGGGSGGGGSQVQLVQSGAEVKKPGASVKVSCKASGYTFTSYEMHWVRQAPGQGLEWMGALDPKTGDTAYSQKFQGRVTLTADTSTSTVYMELSSLRSEDTAVYYCTRFYSYTYWGQGTLVTVSS ... 7.29

In the following, a different binder is considered.
pKd reported for this binder VL1.M3-VH2.M6 humanized scFv (scFv, not shown: a dimerising Fc or GST) scFv: DIVMTQTPLSLSVTPGQPASISCRSSQSLVHSNGKTYLHWYLQKPGQSPQLLIYKVSSRFSGVPDRFSGSGSGTDFTLKISRVEAEDVGVYYCSQNTHVPPTFGQGTKVEIKGGGGSGGGGSGGGGSQVQLVQSGAEVKKPGASVKVSCKASGYTFTSYEMHWVRQAPGQGLEWMGALDPKTGDTAYSQKFQGRVTLTADTSTSTVYMELSSLRSEDTAVYYCTRFYSYTYWGQGTLVTVSS : 7.57
